# System: CP269
# Experimental Protocol: qHTS profiling for inhibitors of Plasmodium falciparum proliferation (AID 504749); also: nearly all actives have a fitted effect of over 60% in size; also: potency is read from the fitted curve at half-maximal effect
# Condition Details: P. falciparum in erythrocytes, SYBR Green DNA, 72 h; series mostly up to 12.8 µM
Results filed as inconclusive are left out. Calls of active or inactive are those of the source. Calls follow the shape of the dose curve; as a rule, active = well fitted inhibition curve with a large enough effect; inconclusive = small, poorly fitted or top-dose-only effect; inactive = flat fitted curve, though single readings scatter.
Reported Endpoint: Potency

Consider the worked cases shown below.
CN(C)[C@@H]1C(=O)C(C(N)=O)=C(O)[C@]2(O)C(=O)C3=C(O)c4c(O)ccc(Cl)c4[C@H](O)[C@H]3C[C@@H]12; inactive
CC[C@]1(C)CC(=O)NC1=O; inactive
NC(=O)c1cc[n+](CC2=C(C(=O)O)N3C(=O)[C@@H](NC(=O)[C@H](c4ccccc4)S(=O)(=O)[O-])[C@@H]3SC2)cc1; 1610 nM (active)
CN(N=O)C(=O)N[C@H]1[C@@H](O)[C@H](O)[C@H](CO)O[C@@H]1O; inactive

# input for lookup
Reported Potency for CP269, given `CO[C@]1(NC(=O)CSCC#N)C(=O)N2C(C(=O)O)=C(CSc3nnnn3C)CS[C@H]21` ?
inactive

====

# Test system: ICS
# Experimental Protocol: qHTS profiling for inhibitors of Plasmodium falciparum proliferation (AID 504749); also: nearly all actives have a fitted effect of over 60% in size
# Condition Details: P. falciparum in erythrocytes, SYBR Green DNA, 72 h; series mostly up to 12.8 µM
# Experimental: NIH National Institute of Allergy and Infectious Diseases [NIAID] NIH Chemical Genomics Center [NCGC] […] Because mature erythrocytes lack DNA, only Plasmodium-derived DNA is detected. NCGC Assay Protocol Summary: The SYBR Green viability assay was adapted from a method described previously (Plouffe et al., 2008). […] The following morning, fluorescence intensity at 485(14) nm excitation and 535(25) nm emission wavelengths was measured on an EnVision (Perkin Elmer) plate reader. […]
Inconclusive results are not listed. The source made the active and inactive calls. The call rests on the fitted dose curve; in most records, active means well fitted inhibition curve with a large enough effect; inconclusive means small, poorly fitted or top-dose-only effect; inactive means flat fitted curve, though single readings scatter.
Classes to choose from: 1 = active, 0 = inactive

Recorded results for 5 compounds are shown here.
CC(=O)OCC1=C(C(=O)O)N2C(=O)[C@@H](NC(=O)CSc3ccncc3)[C@@H]2SC1; 0
CCCN(CCC)C(=O)[C@@H](CCC(=O)O)NC(=O)c1ccccc1; 0
O=C(O)/C=C\c1ccc(Cn2ccnc2)cc1; 0
COCCc1ccc(OC[C@H](O)CNC(C)C)cc1; 0
N[C@@H](CO)C(=O)NNCc1ccc(O)c(O)c1O; 0

Status in this test for `CCN1C(=O)N[C@@H](c2ccccc2)C1=O` ?
0

Dear colleague, could you share the recorded outcome for CO/N=C(/C(=O)NC1C(=O)N2C(C(=O)O)=C(CSc3nc(=O)c(O)nn3C)CSC12)c1csc(N)n1 (stereo not drawn) when you have a moment?
0

Lab log entry: `CN[C@@H](CC(C)C)C(=O)N[C@@H]1C(=O)N[C@H](CC(N)=O)C(=O)N[C@@H]2C(=O)N[C@H]3C(=O)N[C@H](C(=O)N[C@H](C(=O)O)c4cc(O)cc(O)c4-c4cc3ccc4O)[C@H](O)c3ccc(c(Cl)c3)Oc3cc2cc(c3O[C@H]2O[C@@H](CO)[C@@H](O)[C@@H](O)[C@@H]2O[C@@H]2C[C@](C)(N)[C@H](O)[C@H](C)O2)Oc2ccc(cc2Cl)[C@@H]1O` — outcome as called in the assay?
0

Short answer needed: outcome of this test for `C[C@@H](C(=O)O)c1ccc(C(=O)c2cccs2)cc1` ?
0

Called result for `CO[C@H]1C[C@@H](O[C@@H]2[C@H](C)[C@H](O[C@@H]3O[C@@H](C)C[C@@H](N(C)C)[C@@H]3O)[C@H](C)C[C@]3(CO3)C(=O)[C@H](C)[C@H](O)[C@H](C)[C@H](C)OC(=O)[C@@H]2C)O[C@@H](C)[C@H]1O`
0

Origin of measurements: PubChem BioAssay (NCATS)
